Test system: MDA-MB-435 melanoma
assay.procedure: NCI-60 one-dose screen, 48 h
condition.context: 10 µM
Compounds without any hit were thinned out: in the full panel of roughly 83,000, 20% have a hit. The source made the active and inactive calls. The calls were made as follows: active = growth percent below 10; inactive = the rest.
Mark one answer only. Choices: T = active, F = inactive

// below: answered molecules
O=C1OCC2=C1C(c1cccc(Cl)c1)c1cc3c(cc1N2CCO)OCO3 (stereo unspecified): T
O=C(Nc1ccc(CO)cc1)c1ccccc1Nc1ccnc(C(F)(F)F)c1: F
COc1ccc2c(c1)O/C(=C\c1ccc([N+](=O)[O-])o1)C2=O: T
COc1cc(/C=C\c2cc(OC)c(OC)c(OC)c2)cc(NS(=O)(=O)c2ccc(Cl)cc2)c1OC: T
Nc1ccc2c(c1)Cc1cc(N)c(Br)cc1-2: F

Inquiry: What is the recorded call for this molecule in the test? `Cc1cc(Cc2cc(C)c(O)c(C)c2)cc(C)c1O`
Reply text: T

Inquiry: Assay result, entry `COc1ccc(/C=C2/CN(C(=O)c3ccc(C)cc3)C/C(=C\c3ccc(OC)cc3)C2=O)cc1` — outcome?
Reply text: F

Inquiry: Could you kindly confirm the outcome this assay logged for COc1ccc2nc3cc(Cl)ccc3c(NCCNCC(C)O)c2c1 (stereo unspecified) ?
Reply text: F

Inquiry: # fetch the recorded call for `CCCCCCCNc1nc(C=O)ncc1-c1ccc(C(F)(F)F)cc1` here
Reply text: F

Inquiry: Please indicate how the test categorized CCCN(CCC)CCC(O)c1cc2c(c3ccccc13)CCCC2 (stereo unspecified) .
Reply text: F

Inquiry: Answer briefly: the call reported for O=C1NC(=O)N(Cc2ccccc2)CC1Br (stereo unspecified) in this assay.
Reply text: F

---

# growth listing for each entry below
System: NCI-H460 lung
assay.procedure: NCI-60 one-dose screen, 48 h (100 = growth as untreated, 0 = no growth, -100 = all killed)
condition.context: 10 µM
The panel holds about 83,000 compounds, 20% with a hit somewhere; the sample as a whole holds those more often.
Report the value in % with no unit label.

Example results:
CCN(CC)CCCC(C)Nc1nc(-c2ccc(OC)cc2)nc2cc(Cl)ccc12 (stereo unspecified): 72.5
N=c1nc(N)ncn1-c1ccccc1: 106
CN(C)c1ccc(-c2cc(-c3cccc(NS(C)(=O)=O)c3)nc(N)c2C#N)cc1: 5.32
Nc1ncnc2[nH]c(=O)[nH]c12: 95.5
O=C1N=NC2=C1c1c3ccccc3c(O)n1CC2: 110
CCN(CC)CCOc1nc2ccccc2c2c1-c1ccc(OC)cc1C2=O: -34.4
O=C1NC(=O)c2ncccc21: 111
Cc1cccc2c1O/C(=C\c1ccc([N+](=O)[O-])o1)C2=O: -58.5

Inquiry: I'd like to know its growth. The molecule in question is `CCOC(=O)N1C/C(=C/c2ccc(F)cc2)C(=O)/C(=C/c2ccc(F)cc2)C1`
Reply text: 3.07

Inquiry: Quick one: growth for `O=C1/C(=C\c2ccccc2)CN(C(=O)c2ccccc2)C/C1=C\c1ccccc1` ?
Reply text: 60.1

Inquiry: Dear colleague, I am looking for the recorded growth of the following molecule: `Nc1ncn([C@@H]2O[C@H](CO)[C@@H](O)[C@H]2O)c(=O)n1`
Reply text: -1.73

---

Recorded growth values for a group of molecules are listed next.
Test system: NCI-H226 lung
assay.procedure: NCI-60 one-dose screen, 48 h (100 = growth as untreated, 0 = no growth, -100 = all killed)
condition.context: 10 µM
About 83,000 compounds went through this panel and 20% of them were active in at least one assay; those are over-represented in the sample as a whole.
The reply should contain only the number, in %.

Cc1cccc2c(NCCN(C)C)c3cccc(C(=O)NCCN(C)C)c3nc12: 22.4
Cc1ccc(NC(=O)CSc2nc3ccccc3c(=O)n2CCc2ccccc2)c(C(=O)O)c1: 101
Nc1c(C(=O)Nc2ccccc2Cl)sc2nc3c(cc12)C(=O)CCC3: 75.9

Inquiry: So what does the record say about growth for `COc1ccc2c(c1OC)O/C(=C\c1ncc([N+](=O)[O-])n1C)C2=O` ?
Reply text: 66.6

Inquiry: Give the measured growth of `COc1ccc(/C=C2/CN(CCC#N)C/C(=C\c3ccc(OC)cc3)C2=O)cc1` .
Reply text: -6.76

Inquiry: Which growth value belongs to `O=C1/C(=C\c2ccc(Cl)cc2)CN(C(=S)Nc2ccccc2)C/C1=C\c1ccc(Cl)cc1` ?
Reply text: -70.1

Inquiry: Recorded growth of `COc1cc(-c2cc(/C=C3\C(=O)Nc4cc(Cl)ccc43)[nH]n2)cc(OC)c1OC` , please.
Reply text: 50.4

Inquiry: Would you kindly share the measured growth for `COc1cc2nc(Nc3cccc(NC(C)=O)c3)nc(N)c2cc1OC` ?
Reply text: 90.9
